STUDY_SYSTEM: Gag-Pol polyprotein (Human immunodeficiency virus type 1 group M subtype B (isolate HXB2)) (UniProt P04585)
PROCEDURE_TEXT: HIV-1 RT RNase H inhibitors, primary screen, biochemical, fluorescence (AID 565)
TEST_CONTEXT: RT-RNase H RNA/DNA duplex cleavage, at 10 µM, stronger effect = higher value
In all, about 65,000 compounds went through this assay and about 1,200 (1.8%) were called active. This is one part of a sample in which actives are shown more often than they occur.

COMPOUND | RESULT_UNITS | inhibition
CCSc1nc(=S)n(CC)c(C)c1C(C)=O | % | -6.33
CCOC(=O)CSc1nc2sc3c(c2c(=O)[nH]1)CC(C)(C)OC3 | % | -2.48
CCS(=O)(=O)N1CCCC(C(=O)NCc2ccc(C)cc2)C1 (stereo not drawn) | % | -25.4
CC(C)CNC(=O)C1CCCN(S(=O)(=O)c2ccc(-n3cnnn3)cc2)C1 (stereo not drawn) | % | 55.3
c1ccc(-n2ncc3c2ncn2c(CSc4nc5ccccc5s4)nnc32)cc1 | % | 63.5
O=C(Nc1nc(-c2ccncc2)cs1)C1COc2ccccc2O1 (stereo not drawn) | % | 83.8
CC1Oc2ccccc2N(Cc2cccnc2)C1=O (stereo not drawn) | % | -1.88
COc1ccc(S(=O)(=O)NC2(C(F)(F)F)N=C3SCCN3C2=O)cc1 (stereo not drawn) | % | -21.6
CCC(CC)C(=O)Nc1cc(C(=O)OC)cc(C(=O)OC)c1 | % | -9.62
c1ccc(-n2ncc3c2ncn2c(C4CCCCC4)nnc32)cc1 | % | -1.63
COc1cccc(-n2c(SCC(=O)NC3CCCCC3)nc3n[nH]c(C)c3c2=N)c1 | % | -20
Cc1nc2nc(CSc3nc4ccccc4s3)cc(=O)n2[nH]1 | % | 4.18
COc1ccc(Cc2nnc(NC(=O)Cc3cccs3)s2)cc1 | % | 70.2
COCC(=O)Nc1nnc(COc2ccccc2)s1 | % | -3.37
COc1ccccc1NC(=O)c1ccc(C)s1 | % | -6.32
COc1ccc(OC)c2sc(NC(=O)C3COc4ccccc4O3)nc12 (stereo not drawn) | % | 1.92
COc1ccc(C(=O)Nc2c(N)nc(SCC(=O)N3CCC(C)CC3)[nH]c2=O)cc1OC | % | -4.95
C/C(=C\C(=O)c1ccc(Br)cc1)N1CCCCC1 | % | -18.6
Cc1cccc(NC(=O)COc2ccc(Br)cc2C)n1 | % | -9.39
CCOC(=O)c1c(NC(=O)c2ccc(Br)o2)sc2c1CCCC2 | % | -13
CCN(CC)CCCN1C(=O)C(=O)/C(=C(/O)c2c(C)nc3ccccn23)C1c1ccc(C)o1 (stereo not drawn) | % | -7.5
COc1ccc(Cc2nnc(NS(=O)(=O)Cc3ccccc3)s2)cc1 | % | 1.94
CCC(=NC1CC(C)(C)NC(C)(C)C1)C1=C(O)CC(C)(C)CC1=O | % | -6.23
